Biological target: T1, mouse BR3 extracellular domain (mouse, UniProt Q9D8D0 1-64)
T1 construct: also called mBR3-ECD; mBR-ECD
T1 sequence: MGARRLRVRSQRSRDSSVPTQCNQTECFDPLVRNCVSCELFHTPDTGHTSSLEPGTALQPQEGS
Test: single spot phage competition ELISA; OD with competitor / OD without competitor; criterion met by the picked clones
Value type: OD450nm reduction (%)

Binder	OD450nm reduction (%)
V3-1 Fab (Fab, V domains shown, soluble Fab in SPR) VH: EVQLVESGGGLVQPGGSLRLSCAASGFTISSNSIHWVRQAPGKGLEWVAWITPSDGNTDYADSVKGRFTISADTSKNTAYLQMNSLRAEDTAVYYCARRVCYNRLGVCAGGMDYWGQGTLVTVSS VL: DIQMTQSPSSLSASVGDRVTITCRASQDVSTAVAWYQQKPGKAPKLLIYSASFLYSGVPSRFSGSGSGTDFTLTISSLQPEDFATYYCQQSRITPPTFGQGTKVEIKR	< 50%

Go through the items and report each one's OD450nm reduction (%).
1. V3-12 Fab (Fab, V domains shown, soluble Fab in SPR) VH: EVQLVESGGGLVQPGGSLRLSCAASGFTISSNSIHWVRQAPGKGLEWVAWITPSDGNTDYADSVKGRFTISADTSKNTAYLQMNSLRAEDTAVYYCARRVCYDRARVCAGAMDYWGQGTLVTVSS VL: DIQMTQSPSSLSASVGDRVTITCRASQDVSTAVAWYQQKPGKAPKLLIYSASFLYSGVPSRFSGSGSGTDFTLTISSLQPEDFATYYCQQSYSTPPTFGQGTKVEIKR
2. V3-11 Fab (Fab, V domains shown, soluble Fab in SPR) VH: EVQLVESGGGLVQPGGSLRLSCAASGFTISSNSIHWVRQAPGKGLEWVAWITPSDGNTDYADSVKGRFTISADTSKNTAYLQMNSLRAEDTAVYYCARRVCYNNLGVCAGAMDYWGQGTLVTVSS VL: DIQMTQSPSSLSASVGDRVTITCRASQDVSTAVAWYQQKPGKAPKLLIYSASFLYSGVPSRFSGSGSGTDFTLTISSLQPEDFATYYCQQTSTSPPTFGQGTKVEIKR

Response:
< 50%
< 50%
